- measurement_protocol: Cytotoxicity against human SH-SY5Y cells assessed as cell viability at 0.8 uM measured after 2 hrs by MTT assay relative to control
- Format: cell-based
- assay_setup: read-out: Activity
reported_metric: viability at 2 h, 0.8 µM (%)
Write the answer as a number in %, unit excluded.

| compound | viability at 2 h, 0.8 µM [%] |
| --- | --- |
| COc1cc2c(cc1O)CCC(C)(CC(N)C(=O)O)O2 (stereo unspecified) | 100 |

Enquiry: Recall and state the measured viability at 2 h, 0.8 µM for COc1cc2c(cc1O)CCC(C)(CC(N)=O)O2 (stereo unspecified) .
Return: 88.2

====

- measurement_protocol: Cytotoxicity against human SH-SY5Y cells assessed as cell viability at 3.1 uM measured after 24 hrs by MTT assay relative to control
- Format: cell-based
- assay_setup: read-out: Activity
Listed below: viability at 24 h, 3.1 µM values for each entry.
Write the answer as a number in %, unit excluded.

Reference set, count: 5
| compound | readout_units | value_observed |
| --- | --- | --- |
| COc1cc2c(cc1O)CCC(C)(C)O2 | % | 99.4 |
| COc1cc2c(cc1O)CCC(C)(CC(=O)N1CCC[C@H]1C(=O)O)O2 (stereo partly specified) | % | 100 |
| Cc1c(C)c2c(c(C)c1O)CCC(C)(C(=O)O)O2 (stereo unspecified) | % | 79.6 |
| COc1cc2c(cc1O)CCC(C)(CCNC(=O)C[C@H]1OC(O)[C@H](O)[C@@H](O)[C@@H]1O)O2 (stereo partly specified) | % | 88.1 |
| COc1cc2c(cc1O)CCC(C)(CCNC(=O)/C=C(C)/C=C/C=C(C)/C=C/C1=C(C)CCCC1(C)C)O2 (stereo unspecified) | % | 100 |

Enquiry: Recall and state the measured viability at 24 h, 3.1 µM for COc1cc2c(cc1O)CCC(C)(CC(=O)N[C@H](C(=O)O)C(C)C)O2 (stereo partly specified) .
Return: 79.1

Enquiry: Recall and state the measured viability at 24 h, 3.1 µM for COc1cc2c(cc1O)CCC(C)(CCNC(C)=O)O2 (stereo unspecified) .
Return: 90.7

Enquiry: Recall and state the measured viability at 24 h, 3.1 µM for COc1cc2c(cc1O)CCC(C)(CC(=O)N[C@@H](CCC(N)=O)C(=O)O)O2 (stereo partly specified) .
Return: 100

Enquiry: Recall and state the measured viability at 24 h, 3.1 µM for COc1cc2c(cc1O)CCC(C)(CC(=O)NCCc1ccc(O)c(O)c1)O2 (stereo unspecified) .
Return: 94.8

====

Listed below: Retention_time values for each entry.
- measurement_protocol: Retention time in Sprague-Dawley rat brain by HPLC based fluorimetric analysis
- Assay type: ADME, tissue-based
Write the answer as a number in min, unit excluded.

Reference set, count: 3
| compound | readout_units | Retention_time |
| --- | --- | --- |
| COc1cc2c(cc1O)CCC(C)(CC(N)C(=O)O)O2 (centres undefined) | min | 7 |
| COc1cc2c(cc1O)CCC(C)(C)O2 | min | 8 |
| COc1cc2c(cc1O)CCC(C)(CCNC(=O)C[C@H]1OC(O)[C@H](O)[C@@H](O)[C@@H]1O)O2 (some centres undefined) | min | 2 |

Here's the next entry for you.
Enquiry: Recall and state the measured Retention_time for COc1cc2c(cc1O)CCC(C)(CCNC(C)=O)O2 (centres undefined) .
Return: 4
